target: Ls-AChBP (Lymnaea stagnalis, UniProt P58154); construct: soluble homopentamer, AChBP pentamer 125 kDa; amine-coupled for SAW and GCI; assay: GCI biosensor, steady state; type: binding
Sequence (P58154 20-229): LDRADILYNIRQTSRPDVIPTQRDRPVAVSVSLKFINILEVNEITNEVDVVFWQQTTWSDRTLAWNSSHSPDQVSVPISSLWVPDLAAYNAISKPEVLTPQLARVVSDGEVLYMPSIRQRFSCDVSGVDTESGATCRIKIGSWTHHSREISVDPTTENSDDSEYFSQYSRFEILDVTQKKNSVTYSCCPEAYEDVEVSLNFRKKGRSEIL
Field: pKd. Provide a value for each of the compounds that follow.
Give bare numbers, as −log10 of the molar value.

CCn1ccnc1-c1cccc(-c2ccccn2)n1 [VUF24234] = 5.30

Moving on to the next compound.
Prompt: Give recorded pKd with Ls-AChBP (Lymnaea stagnalis, UniProt P58154) for the following compound: Cn1ccnc1/C=C/c1ccc(O)c(O)c1 [VUF22430]
Response: 5.89

The measured values listed here are drawn from paper PMC12394895.
